Answer each item with its documented melting point.
Give bare numbers, in °C.

Fill in the blank: the reported melting point of Oc1cccc(C=C2c3ccccc3CCc3ccccc32)c1F [Example 153] is ____.
143.2

Fill in the blank: the reported melting point of O=Cc1cccc(C=C2c3ccccc3CCc3ccccc32)c1 [Example 70] is ____.
86.7

Fill in the blank: the reported melting point of Cc1cc(S(=O)(=O)N2CCOCC2)c(C=C2c3ccccc3CCc3ccccc32)cc1Cl [Example 12] is ____.
194.7

Next compound, please.
Fill in the blank: the reported melting point of CS(=O)(=O)Nc1ccc(C=C2c3ccccc3CCc3ccccc32)cc1 [Example 99] is ____.
210.7
